I'd be grateful if you could share measured MIC90 for these entries.
test system: Mycobacterium tuberculosis; assay: Compounds tested against Mycobacterium tuberculosis (MIC90); format: cell-based; conditions: read-out: M. tb. MIC90
Express the result in µg/mL but write the number alone.

**Q:** Find the measured MIC90 of Cl.Cl.N=C(N)c1ccc(OCCCCCOc2cccc(-c3cc4ccc(C(=N)N)cc4o3)c2)cc1 [Compound 62] and report it.
**A:** 0.65

**Q:** Find the measured MIC90 of CC(C)NC(=N)c1ccc(OCCCOc2ccc(-c3cc4cc(C(=N)NC(C)C)ccc4o3)cc2)cc1.Cl.Cl [Compound 45] and report it.
**A:** 1.12

**Q:** Find the measured MIC90 of CC(C)NC(=N)c1ccc(OCCCOc2ccc(-c3cc4ccc(C(=N)NC(C)C)cc4o3)cc2)cc1.Cl.Cl [Compound 69] and report it.
**A:** 0.54

**Q:** Find the measured MIC90 of CC(C)NC(=N)c1ccc(OCCCCCOc2ccc(-c3cc4ccc(C(=N)NC(C)C)cc4o3)cc2)cc1.Cl.Cl [Compound 75] and report it.
**A:** 1.19

**Q:** Find the measured MIC90 of Cl.Cl.N=C(N)c1ccc(OCCCOc2cccc(-c3cc4ccc(C(=N)N)cc4o3)c2)cc1 [Compound 56] and report it.
**A:** 1.02

**Q:** Find the measured MIC90 of CC(C)NC(=N)c1ccc(OCCCCCOc2ccc(-c3cc4cc(C(=N)NC(C)C)ccc4o3)cc2)cc1.Cl.Cl [Compound 51] and report it.
**A:** 0.9
